# System: Abutilon theophrasti (ABUTH)
# ASSAY_INFO: Pre-emergence Test (glasshouse, percentage damage to the plant)
# Assay type: in vivo
# PROTOCOL_CONDITIONS: 1000 g/ha unless otherwise stated, five-point scale
MEASURED_QUANTITY: percentage damage to the plant, ABUTH

COMPOUND	MEASURED_QUANTITY	VALUE_OBSERVED
CCn1c(C)c(-c2cc(C(F)(F)F)ccc2F)c(=O)c(C(=O)O)c1-c1ccc(Cl)cc1	percentage damage to the plant, ABUTH	3 (3=41-60%)
CCn1c(C)c(-c2cccs2)c(=O)c(C(=O)O)c1-c1ccc(Cl)cc1	percentage damage to the plant, ABUTH	1 (1=0-20%)

Give percentage damage to the plant, ABUTH for each of the items listed below.
1. CCn1c(C)c(-c2ccc(OC)c(C)c2)c(=O)c(C(=O)O)c1-c1ccc(Cl)c(Cl)c1
2. CCOc1cc(-c2c(C)n(CC)c(-c3ccc(Cl)c(Cl)c3)c(C(=O)O)c2=O)ccc1C(F)(F)F

### Response
1. 1 (1=0-20%)
2. 1 (1=0-20%)

Please give percentage damage to the plant, ABUTH, item by item, for the list that follows.
1. CCn1c(C)c(-c2cc(C)cc(C(F)(F)F)c2)c(=O)c(C(=O)O)c1-c1ccc(Cl)c(Cl)c1
2. CCn1c(C)c(-c2cccc(OCC(F)(F)F)c2)c(=O)c(C(=O)O)c1-c1ccc(Cl)c(Cl)c1
3. CCn1c(C)c(-c2ccccc2)c(=O)c(C(=O)O)c1-c1ccc(F)cc1F
4. CCOC(=O)c1c(-c2ccc(Br)c(F)c2)n(CC)c(C)c(-c2ccc(Cl)cc2)c1=O
5. CCn1c(C)c(-c2cccc(SC)c2)c(=O)c(C(=O)O)c1-c1ccc(Cl)c(Cl)c1

### Response
["1 (1=0-20%)", "1 (1=0-20%)", "3 (3=41-60%)", 0, "1 (1=0-20%)"]

Working through the 4 compounds below one at a time, give percentage damage to the plant, ABUTH for each.
1. CCn1c(C)c(-c2cc(C)c(OC)c(C)c2)c(=O)c(C(=O)O)c1-c1ccc(Cl)c(Cl)c1
2. CCn1c(C)c(-c2ccc(C(F)(F)F)cc2)c(=O)c(C(=O)O)c1-c1ccc(Cl)c(Cl)n1
3. CCn1c(C)c(-c2ccc(C(C)=O)cc2)c(=O)c(C(=O)O)c1-c1ccc(Cl)c(Cl)c1
4. CCn1c(C)c(-c2cc(C)c(F)c(C)c2)c(=O)c(C(=O)O)c1-c1ccc(Cl)cc1

### Response
1: 1 (1=0-20%); 2: 1 (1=0-20%); 3: 1 (1=0-20%); 4: 0

Record percentage damage to the plant, ABUTH per entry; entries follow.
1. CCn1c(C)c(-c2ccc(C#N)cc2)c(=O)c(C(=O)O)c1-c1ccc(Cl)c(Cl)n1
2. CCn1c(C)c(-c2cncc(OC)c2)c(=O)c(C(=O)O)c1-c1ccc(Cl)c(Cl)c1
3. CCn1c(C)c(-c2ccc(F)c(C#N)c2)c(=O)c(C(=O)O)c1-c1ccc(Cl)c(Cl)c1 [Compound 92]

### Response
["1 (1=0-20%)", "2 (2=21-40%)", "1 (1=0-20%)"]

Hi team, please reply with percentage damage to the plant, ABUTH for each item in this list.
1. CCNC(=O)c1cc(-c2c(C)n(CC)c(-c3ccc(Cl)c(Cl)c3)c(C(=O)O)c2=O)ccc1Cl
2. CCn1c(C)c(-c2cccc(C(F)(F)F)c2F)c(=O)c(C(=O)O)c1-c1ccc(Cl)cc1
3. CCOC(=O)c1c(-c2ccc(F)cc2F)n(CC)c(C)c(-c2ccc(Cl)cc2)c1=O
4. CCn1c(C)c(-c2cccc(C(F)F)c2)c(=O)c(C(=O)O)c1-c1ccc(Cl)c(Cl)c1
5. CCn1c(C)c(-c2ccc(F)cc2C)c(=O)c(C(=O)O)c1-c1ccc(Cl)c(Cl)c1
6. CCn1c(C)c(-c2ccc(C(C)(C)C)cc2)c(=O)c(C(=O)O)c1-c1ccc(Cl)c(Cl)c1
7. CCn1c(C)c(-c2cccc(Cl)c2Cl)c(=O)c(C(=O)O)c1-c1ccc(Cl)cc1

### Response
1. 1 (1=0-20%)
2. 4 (4=61-80%)
3. 1 (1=0-20%)
4. 2 (2=21-40%)
5. 2 (2=21-40%)
6. 1 (1=0-20%)
7. 1 (1=0-20%)

# return percentage damage to the plant, ABUTH for each item in the list
1. CCn1c(C)c(-c2ccc(OC(F)(F)F)cc2)c(=O)c(C(=O)O)c1-c1ccc(Cl)c(Cl)c1
2. CCn1c(C)c(-c2ccc(Cl)s2)c(=O)c(C(=O)O)c1-c1ccc(Cl)cc1
3. CCn1c(C)c(-c2ccc(S(=O)(=O)CC)cc2)c(=O)c(C(=O)O)c1-c1ccc(Cl)c(Cl)c1

### Response
1. 1 (1=0-20%)
2. 1 (1=0-20%)
3. 1 (1=0-20%)

# per-item lookup of percentage damage to the plant, ABUTH; items listed below
1. CCn1c(C)c(-c2cccc(C#N)c2)c(=O)c(C(=O)O)c1-c1ccc(Cl)c(Cl)n1
2. CCn1c(C)c(-c2cc(Cl)c(F)c(Cl)c2)c(=O)c(C(=O)O)c1-c1ccc(Cl)cc1
3. CCn1c(C)c(-c2ccc(Cl)cc2C)c(=O)c(C(=O)O)c1-c1ccc(Cl)c(Cl)c1
4. CCn1c(C)c(-c2ccc(Cl)cc2OC)c(=O)c(C(=O)O)c1-c1ccc(Cl)cc1
5. CCn1c(C)c(-c2ccc(F)c(OCC(F)(F)F)c2)c(=O)c(C(=O)O)c1-c1ccc(Cl)c(Cl)c1

### Response
0
0
2 (2=21-40%)
1 (1=0-20%)
1 (1=0-20%)

###

# Test system: Echinochloa crus-galli (ECHCG)
# ASSAY_INFO: Post-emergence Test (glasshouse, percentage damage to the plant)
# Type: in vivo
# PROTOCOL_CONDITIONS: post-emergence; 1000 g/ha unless otherwise stated; evaluated after 13 days
MEASURED_QUANTITY: ECHCG, percentage damage caused to the plant (five-point scale)

Use the examples below as a reference point.
MOLECULE	VALUE_OBSERVED
CCn1c(C)c(-c2ccc(F)cc2)c(=O)c(C(=O)OC)c1-c1cnc(Cl)c(Cl)c1 [Compound 212]	0
CCn1c(C)c(-c2ccc(Cl)cc2)c(=O)c(C(=O)O)c1-c1ccc(F)c(Cl)c1 [Compound 258]	5 (5=81-100%)
CCn1c(C)c(-c2cc(OCC3CC3)c(Cl)cc2F)c(=O)c(C(=O)O)c1-c1ccc(F)c(F)c1 [Compound 262]	4 (4=61-80%)
CCn1c(C)c(-c2ccc(Cl)cc2F)c(=O)c(C(=O)O)c1-c1cnc(Cl)c(Cl)c1 [Compound 242]	5 (5=81-100%)
CCn1c(C)c(-c2cc(OCC3CC3)c(Cl)cc2F)c(=O)c(C(=O)O)c1-c1ccc(Cl)c(Cl)c1 [Compound 246]	4 (4=61-80%)

Field: ECHCG, percentage damage caused to the plant (five-point scale). Fill in for each record below.
1. CCn1c(C)c(-c2cc(OCCOC)c(Cl)cc2F)c(=O)c(C(=O)O)c1-c1ccc(F)c(F)c1 [Compound 261]
2. CCn1c(CBr)c(-c2ccc(Cl)cc2)c(=O)c(C(=O)OC)c1-c1ccc(Cl)c(Cl)c1 [Compound 218]

### Response
["4 (4=61-80%)", "1 (1=0-20%)"]

###

# System: Amaranthus retoflexus (AMARE)
# ASSAY_INFO: Pre-emergence Test (glasshouse, percentage damage to the plant)
# Format: in vivo
# PROTOCOL_CONDITIONS: 1000 g/ha unless otherwise stated, five-point scale
MEASURED_QUANTITY: percentage damage to the plant, AMARE

Some solved cases for reference:
COMPOUND	percentage damage to the plant, AMARE
CCn1c(C)c(-c2cc(OC)cc(OC)c2)c(=O)c(C(=O)O)c1-c1ccc(Cl)c(Cl)c1	1 (1=0-20%)
CCn1c(C)c(-c2cnc(F)c(F)c2)c(=O)c(C(=O)O)c1-c1ccc(Cl)c(Cl)c1	1 (1=0-20%)
CCn1c(C)c(-c2ccoc2)c(=O)c(C(=O)O)c1-c1ccc(Cl)c(Cl)c1	1 (1=0-20%)
CCn1c(C)c(-c2ccccc2Cl)c(=O)c(C(=O)O)c1-c1ccc(Cl)c(Cl)c1	4 (4=61-80%)
CCn1c(C)c(-c2ccc(C(F)(F)F)c(Cl)c2)c(=O)c(C(=O)O)c1-c1ccc(Cl)cc1 [Compound 171]	0

For each entry beneath this line, provide reported percentage damage to the plant, AMARE.
1. CCn1c(C)c(-c2cccc(C(F)(F)F)c2)c(=O)c(C(=O)O)c1-c1ccnc(Cl)c1
2. CCn1c(C)c(-c2ccc(Cl)cc2Cl)c(=O)c(C(=O)O)c1-c1ccc(Cl)c(Cl)c1
3. CCn1c(-c2ccc(Cl)c(Cl)c2)c(C(=O)OC)c(=O)c(-c2ccc(Cl)cc2)c1C(F)(F)F
4. CCn1c(C)c(-c2cc(F)c(OC)c(Cl)c2)c(=O)c(C(=O)O)c1-c1ccc(Cl)c(Cl)c1
5. CCn1c(C)c(-c2ccc(Cl)cc2SC)c(=O)c(C(=O)O)c1-c1ccc(Cl)c(Cl)c1
6. CCn1c(C)c(-c2cc(F)ccc2Cl)c(=O)c(C(=O)O)c1-c1ccc(Cl)cc1

### Response
["1 (1=0-20%)", "5 (5=81-100%)", 0, "1 (1=0-20%)", 0, 0]

For every listed record, write down its percentage damage to the plant, AMARE.
1. CCn1c(C)c(-c2cccc(C#N)c2)c(=O)c(C(=O)O)c1-c1ccnc(Cl)c1
2. CCOC(=O)c1c(-c2ccc(F)cc2F)n(CC)c(C)c(-c2ccc(Cl)cc2)c1=O

### Response
[0, "1 (1=0-20%)"]

For each listed entry, give its percentage damage to the plant, AMARE.
1. CCn1c(C)c(-c2ccc(C(F)(F)F)c(Cl)c2)c(=O)c(C(=O)O)c1-c1ccc(Cl)c(Cl)c1
2. CCn1c(C)c(-c2ncco2)c(=O)c(C(=O)OC)c1-c1ccc(Cl)c(Cl)c1

### Response
2 (2=21-40%)
1 (1=0-20%)

// for each compound in input: emit percentage damage to the plant, AMARE
1. CCn1c(C)c(-c2ccc(Cl)c(Cl)c2)c(=O)c(C(=O)O)c1-c1ccc(Cl)c(Cl)c1
2. CCn1c(C)c(-c2ccc(Cl)c(C(=O)NC3CC3)c2)c(=O)c(C(=O)O)c1-c1ccc(Cl)c(Cl)c1
3. CCn1c(C)c(-c2ccc(Cl)nc2)c(=O)c(C(=O)O)c1-c1ccc(Cl)c(Cl)c1
4. CCn1c(C)c(-c2ccc(Cl)cc2)c(=O)c(C(=O)O)c1-c1ccc(Cl)c(Cl)c1
5. CCn1c(C)c(-c2ccc(C(C)=O)cc2)c(=O)c(C(=O)O)c1-c1ccc(Cl)c(Cl)c1
6. CCn1c(C)c(-c2ccc(C(F)(F)F)nc2)c(=O)c(C(=O)O)c1-c1ccc(Cl)c(Cl)c1
7. CCn1c(C)c(-c2ccc(Cl)cc2OC)c(=O)c(C(=O)O)c1-c1ccc(Cl)cc1

### Response
1: 3 (3=41-60%); 2: 1 (1=0-20%); 3: 5 (5=81-100%); 4: 5 (5=81-100%); 5: 1 (1=0-20%); 6: 1 (1=0-20%); 7: 1 (1=0-20%)
